Tested on: C57Bl/6 mice
Test: Safety and TG elevating effects after IP injection in C57Bl/6 mice (plasma CPK, ALT, AST, lipids)
Assay type: in vivo
Conditions: male chow-fed C57Bl/6 mice, IP 300 mg/kg
Procedure: The high-dose cytotoxic response of ATI-5261 observed in rat, rabbit and cynomolgus monkey is additionally recapitulated in mice (FIG. 4). Male chow-fed C57bl/6 mice were injected intraperitonelly (IP) with 30 or 300 mg/kg of lipid-fee ATI-5261. […] All values (mg/dl) are means±SD, n=4, determined at 4 and 6 h post treatment with peptide.
No end group written: not given here.

SUBSTANCE: EVRSKLEEWLAALRELAEELLARAKS [T4883-6]
TG elevating effects (plasma TG): further reduced
//
SUBSTANCE: EVRSKLEEWLAALRELAEELAARLKS [T4883-7]
TG elevating effects (plasma TG): further reduced

----------
system: C57Bl/6 mice; experiment: Safety and TG elevating effects after IP injection in C57Bl/6 mice (plasma CPK, ALT, AST, lipids); type: in vivo; conditions: male chow-fed C57Bl/6 mice, IP 300 mg/kg, plasma 4 h after injection
No end group written: not given here.
MEASUREMENT_TYPE: muscle toxicity (plasma CPK activity)

SUBSTANCE: EVNSKLEEWLAALNELAEELLARLKS [T5766-4]
MEASUREMENT_TYPE: muscle toxicity (plasma CPK activity)
MEASUREMENT: greatly reduced
//
SUBSTANCE: EVQSKLEEWLAALQELAEELLARLKS [T5766-3]
MEASUREMENT_TYPE: muscle toxicity (plasma CPK activity)
MEASUREMENT: greatly reduced

----------
biological target: ABCA1 (Mus musculus); construct: treated (18 h) with a cAMP analog to induce ABCA1 protein expression; endogenous in cells; host or cells: J774 macrophages; test: ABCA1-dependent [3H]cholesterol efflux from J774 macrophages with and without cAMP; format: cell-based; details: cAMP treated J774 cells, increasing concentration of peptides, 4 h
Sequence (P41233 whole entry): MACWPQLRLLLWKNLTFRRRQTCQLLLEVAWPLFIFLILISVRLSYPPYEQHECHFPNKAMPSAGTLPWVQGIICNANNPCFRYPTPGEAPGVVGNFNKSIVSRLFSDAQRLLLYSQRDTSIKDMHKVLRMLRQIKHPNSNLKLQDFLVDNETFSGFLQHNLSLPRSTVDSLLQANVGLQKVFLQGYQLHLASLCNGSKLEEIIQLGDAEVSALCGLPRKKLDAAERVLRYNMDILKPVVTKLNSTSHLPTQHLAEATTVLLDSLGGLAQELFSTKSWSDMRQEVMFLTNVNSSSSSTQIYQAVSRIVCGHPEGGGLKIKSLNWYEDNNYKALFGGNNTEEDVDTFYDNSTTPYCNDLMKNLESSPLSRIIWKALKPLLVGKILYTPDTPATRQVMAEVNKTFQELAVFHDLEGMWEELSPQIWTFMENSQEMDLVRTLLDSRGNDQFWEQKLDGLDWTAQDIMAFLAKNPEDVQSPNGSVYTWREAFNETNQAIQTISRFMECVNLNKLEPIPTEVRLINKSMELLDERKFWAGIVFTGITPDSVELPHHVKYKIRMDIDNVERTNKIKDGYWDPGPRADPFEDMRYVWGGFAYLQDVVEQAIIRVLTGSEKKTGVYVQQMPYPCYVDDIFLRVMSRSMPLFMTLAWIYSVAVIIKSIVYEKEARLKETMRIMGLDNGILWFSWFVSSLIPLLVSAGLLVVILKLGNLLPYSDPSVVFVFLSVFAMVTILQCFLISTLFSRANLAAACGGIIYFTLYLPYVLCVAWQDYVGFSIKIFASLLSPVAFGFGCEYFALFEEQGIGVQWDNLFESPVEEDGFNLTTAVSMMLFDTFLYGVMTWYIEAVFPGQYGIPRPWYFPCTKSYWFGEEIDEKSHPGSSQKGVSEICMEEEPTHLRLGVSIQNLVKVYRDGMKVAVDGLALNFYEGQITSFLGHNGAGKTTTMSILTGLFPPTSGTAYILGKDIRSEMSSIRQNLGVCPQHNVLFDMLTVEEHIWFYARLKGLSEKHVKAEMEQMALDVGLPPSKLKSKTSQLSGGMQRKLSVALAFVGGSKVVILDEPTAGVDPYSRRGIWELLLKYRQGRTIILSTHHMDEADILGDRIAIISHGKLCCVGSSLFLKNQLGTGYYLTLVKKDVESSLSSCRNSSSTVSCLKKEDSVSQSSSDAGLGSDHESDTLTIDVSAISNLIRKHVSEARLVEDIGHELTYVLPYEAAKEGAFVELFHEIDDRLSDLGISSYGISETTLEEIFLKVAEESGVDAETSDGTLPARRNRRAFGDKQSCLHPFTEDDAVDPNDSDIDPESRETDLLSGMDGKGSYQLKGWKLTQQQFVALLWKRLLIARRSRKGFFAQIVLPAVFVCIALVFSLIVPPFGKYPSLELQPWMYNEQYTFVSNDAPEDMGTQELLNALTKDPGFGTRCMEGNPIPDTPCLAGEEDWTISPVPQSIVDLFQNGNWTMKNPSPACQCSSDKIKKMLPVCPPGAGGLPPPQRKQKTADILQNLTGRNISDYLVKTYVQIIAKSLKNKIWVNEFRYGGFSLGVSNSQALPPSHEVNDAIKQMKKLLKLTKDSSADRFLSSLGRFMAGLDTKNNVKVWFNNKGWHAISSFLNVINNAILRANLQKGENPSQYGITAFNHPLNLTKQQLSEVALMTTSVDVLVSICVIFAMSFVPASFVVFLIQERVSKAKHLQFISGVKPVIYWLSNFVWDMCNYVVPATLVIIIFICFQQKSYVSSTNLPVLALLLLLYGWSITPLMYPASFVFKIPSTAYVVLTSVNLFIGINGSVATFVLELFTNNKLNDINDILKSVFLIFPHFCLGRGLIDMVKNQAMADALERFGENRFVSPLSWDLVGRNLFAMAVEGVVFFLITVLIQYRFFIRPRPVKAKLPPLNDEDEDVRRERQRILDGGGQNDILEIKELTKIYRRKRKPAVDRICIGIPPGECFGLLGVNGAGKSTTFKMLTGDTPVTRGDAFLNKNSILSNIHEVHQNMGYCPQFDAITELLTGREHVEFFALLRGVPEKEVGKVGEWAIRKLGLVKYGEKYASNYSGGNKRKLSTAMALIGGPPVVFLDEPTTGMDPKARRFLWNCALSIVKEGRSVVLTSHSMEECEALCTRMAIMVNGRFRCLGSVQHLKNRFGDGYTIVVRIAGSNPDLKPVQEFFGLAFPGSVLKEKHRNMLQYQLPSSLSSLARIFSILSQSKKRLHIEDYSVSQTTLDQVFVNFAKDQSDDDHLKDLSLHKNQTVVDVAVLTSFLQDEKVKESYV
Non-standard residues stand in square brackets, D forms with d. No end group written: not given here. Cit = NC(=O)NCCC[C@H](N)C(=O)O
Listed here: items and their measured peptide concentration at saturation in cholesterol efflux.
Give a bare numeral; the unit µg/mL is implied.

SUBSTANCE: T6275-5: citrulline form of LeuATI-5261 with single citrulline14→L substitution (EV[Cit]SKLEEWLAALLELAEELLARLKS)
SYSTEM: ABCA1 (Mus musculus)
MEASUREMENT: 3

Please find the next substance below.
// peptide concentration at saturation in cholesterol efflux value for EVCitSKLEEWLAALCitELAEELLARLKS (SEQ ID NO:2) (EV[Cit]SKLEEWLAAL[Cit]ELAEELLARLKS) [CS6253, citrulline form of LeuATI-5261, R3,14→Citrulline, 26-mer] : 3
